Where a name gives a salt, the structure may show the parent alone.
Quantity name: melting point

Here's what some known entries look like.
C[C@H](C(O)c1ccccc1)N(C)N (single isomer, unassigned)
112 to 114 °C
C[C@@H]([C@H](O)c1ccccc1)N(C)N (as salt: maleate)
111 to 113 °C
NNCC(O)c1ccccc1 (single isomer, unassigned) [Compound 50]
98 to 103 °C

Field request: melting point | item: NNCC(O)c1ccccc1 (single isomer, unassigned) [Compound 49] 99 to 104 °C

###

System: Recombinant human VAP-1 SSAO (Homo sapiens, UniProt Q16853)
Sequence (Q16853 1-763): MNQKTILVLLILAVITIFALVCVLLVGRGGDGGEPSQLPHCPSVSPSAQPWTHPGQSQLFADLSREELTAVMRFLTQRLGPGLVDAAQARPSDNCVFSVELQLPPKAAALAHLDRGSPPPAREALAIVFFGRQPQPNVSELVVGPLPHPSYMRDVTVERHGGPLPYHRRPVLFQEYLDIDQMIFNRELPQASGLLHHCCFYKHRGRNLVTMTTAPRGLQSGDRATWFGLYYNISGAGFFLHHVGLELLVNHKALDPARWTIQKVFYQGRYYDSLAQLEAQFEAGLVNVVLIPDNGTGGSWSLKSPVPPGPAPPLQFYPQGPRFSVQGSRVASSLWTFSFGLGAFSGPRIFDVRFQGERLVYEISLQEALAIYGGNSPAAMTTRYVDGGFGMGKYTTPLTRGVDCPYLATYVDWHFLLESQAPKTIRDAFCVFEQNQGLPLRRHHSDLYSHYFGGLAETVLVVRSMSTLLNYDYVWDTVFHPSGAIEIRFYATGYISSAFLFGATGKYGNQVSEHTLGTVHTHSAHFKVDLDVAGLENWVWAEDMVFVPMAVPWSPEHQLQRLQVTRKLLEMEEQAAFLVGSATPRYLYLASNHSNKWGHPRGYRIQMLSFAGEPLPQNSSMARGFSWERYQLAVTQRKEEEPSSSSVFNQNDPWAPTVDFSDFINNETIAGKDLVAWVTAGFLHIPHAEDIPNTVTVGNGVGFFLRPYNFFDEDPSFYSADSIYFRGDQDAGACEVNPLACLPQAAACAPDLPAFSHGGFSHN
Assay details: In vitro inhibition of VAP-1 SSAO activity (coupled colourimetric method)
Type: biochemical
Condition context: ratio of total rat MAO IC50 to human VAP-1 SSAO IC50
Structures can show the parent of a compound that is named as a salt.
Quantity name: Selectivity for VAP-1 SSAO over MAO

Consider the following illustrative entries.
NNCC(O)c1ccccc1 (single isomer, unassigned) [Compound 49]
70
NNCC(O)c1ccccc1 (single isomer, unassigned) [Compound 50]
283
CC[C@@H]([C@H](O)c1ccccc1)N(C)N (racemic) [Compound 21]
158
COc1ccc(CN(N)C(C)C(O)c2ccccc2)cc1 (racemic) [Compound 18]
9

Please give the measured Selectivity for VAP-1 SSAO over MAO for this compound: CN(N)C(C)(C)C(O)c1ccccc1 (racemic) [Compound 20] 98

Consider the compound C[C@H](C(O)c1ccccc1)N(C)N (single isomer, unassigned) [Compound 48] and give its measured Selectivity for VAP-1 SSAO over MAO. 110

# query: Selectivity for VAP-1 SSAO over MAO of entry COc1cc2c(cc1OC)C(CO)N(N)CC2 (centres unmarked) [Compound 8, hydrochloride] <8

For the compound NN1Cc2ccccc2CC1CO (racemic) [Compound 46] , what Selectivity for VAP-1 SSAO over MAO is on record? <61

Requested read-out: Selectivity for VAP-1 SSAO over MAO. Entry: CC(C(O)c1ccccc1)N(C)N (racemic) [Compound 11] 94

Can you look up the measured Selectivity for VAP-1 SSAO over MAO of CC(C)CN(N)CC(O)c1ccccc1 (racemic) [Compound 24] for me? 32

Entry CC(C(O)c1ccccc1)N(N)Cc1ccccc1 (racemic) [Compound 16] : reported Selectivity for VAP-1 SSAO over MAO = ? 62

Need Selectivity for VAP-1 SSAO over MAO, item COc1ccc(C(O)CNN)cc1 (racemic) [Compound 35] 207

Which value of Selectivity for VAP-1 SSAO over MAO has been reported for COc1ccc(C(O)CNN)cc1 (racemic) [Compound 36] in the records? 294

Need Selectivity for VAP-1 SSAO over MAO, item NN(Cc1ccccc1)C(CO)Cc1ccccc1 (racemic) [Compound 38] ≈10

Bench note: what Selectivity for VAP-1 SSAO over MAO did NN(Cc1ccccc1)[C@@H]1CCCC[C@H]1O (racemic) [Compound 42] show? 29

Selectivity for VAP-1 SSAO over MAO lookup needed for CN(N)[C@H](c1ccccc1)C(O)c1ccccc1 (stereo in doubt) [Compound 5] , thanks. 132

Value lookup for Selectivity for VAP-1 SSAO over MAO; key = C[C@@H]([C@H](O)c1ccccc1)N(C)N (racemic) [Compound 10] 120

###

System: Recombinant human VAP-1 SSAO (Homo sapiens, UniProt Q16853)
Assay details: In vitro inhibition of VAP-1 SSAO activity (coupled colourimetric method)
Assay type: biochemical
Condition context: ratio of total rat MAO IC50 to human VAP-1 SSAO IC50
Selectivity for VAP-1 SSAO over MAO vs 100: at or above is 1.0, below is 0.0.

Reference set, count: 5
NN(Cc1ccccc1)C1CCCCC1O (racemic)
0.0
C[C@@H]([C@H](O)c1ccccc1)N(N)CC1CC1 (racemic)
0.0
C[C@@H]([C@H](O)c1ccccc1)N(N)Cc1ccccc1 (racemic)
0.0
CN(N)CC(O)c1ccccc1Cl (racemic)
0.0
CCC[C@@H]([C@H](O)c1ccccc1)N(C)N (racemic)
1.0

Decide: Selectivity for VAP-1 SSAO over MAO of C[C@@H]([C@H](O)c1ccccc1)N(C)N [Compound 1] >= 100? 1.0

Confirm if Selectivity for VAP-1 SSAO over MAO reported for the compound COc1cc2c(cc1OC)C(CCO)N(N)CC2 (racemic) is 100 or above. 0.0

Is Selectivity for VAP-1 SSAO over MAO for COc1cccc(C(O)CNN)c1 (racemic) at or above 100? 1.0

Determine whether this compound has Selectivity for VAP-1 SSAO over MAO no lower than 100: COc1ccc(C(O)CN(C)N)cc1 (stereo not shown) 1.0

###

System: Recombinant human VAP-1 SSAO (Homo sapiens)
Assay details: In vitro inhibition of VAP-1 SSAO activity (coupled colourimetric method)
Format: biochemical
Condition context: lysate of CHO cells expressing recombinant human VAP-1 SSAO; 1 mM benzylamine; 1 h at 37° C.; read-out: VAP-1 SSAO inhibitory activity IC50
pIC50: −log10 of the molar value.
Returns one of t or f; t when pIC50 is >= 7.

NN(Cc1ccccc1)[C@@H]1CCCC[C@H]1O (racemic)
f
NN(Cc1ccccc1)C1CCCCC1O (racemic)
f
CN(N)C(C)(C)C(O)c1ccccc1 (racemic)
f
COc1cccc(C(O)CNN)c1 (racemic)
t
NN1Cc2ccccc2CC1CO (racemic)
f
COc1ccc(C(O)CNN)cc1 (racemic) [Compound 35]
t

Quick check, pIC50 >= 7? COc1ccc(CN(N)C(C)C(O)c2ccccc2)cc1 (racemic) f

Entry COc1ccc(C(O)CN(C)N)cc1 (stereo not shown) : is its pIC50 no less than 7? f

pIC50 >= 7 for CC[C@@H]([C@H](O)c1ccccc1)N(C)N (racemic) ? f

###

System: Recombinant human VAP-1 SSAO (Homo sapiens, UniProt Q16853)
Sequence (Q16853 1-763): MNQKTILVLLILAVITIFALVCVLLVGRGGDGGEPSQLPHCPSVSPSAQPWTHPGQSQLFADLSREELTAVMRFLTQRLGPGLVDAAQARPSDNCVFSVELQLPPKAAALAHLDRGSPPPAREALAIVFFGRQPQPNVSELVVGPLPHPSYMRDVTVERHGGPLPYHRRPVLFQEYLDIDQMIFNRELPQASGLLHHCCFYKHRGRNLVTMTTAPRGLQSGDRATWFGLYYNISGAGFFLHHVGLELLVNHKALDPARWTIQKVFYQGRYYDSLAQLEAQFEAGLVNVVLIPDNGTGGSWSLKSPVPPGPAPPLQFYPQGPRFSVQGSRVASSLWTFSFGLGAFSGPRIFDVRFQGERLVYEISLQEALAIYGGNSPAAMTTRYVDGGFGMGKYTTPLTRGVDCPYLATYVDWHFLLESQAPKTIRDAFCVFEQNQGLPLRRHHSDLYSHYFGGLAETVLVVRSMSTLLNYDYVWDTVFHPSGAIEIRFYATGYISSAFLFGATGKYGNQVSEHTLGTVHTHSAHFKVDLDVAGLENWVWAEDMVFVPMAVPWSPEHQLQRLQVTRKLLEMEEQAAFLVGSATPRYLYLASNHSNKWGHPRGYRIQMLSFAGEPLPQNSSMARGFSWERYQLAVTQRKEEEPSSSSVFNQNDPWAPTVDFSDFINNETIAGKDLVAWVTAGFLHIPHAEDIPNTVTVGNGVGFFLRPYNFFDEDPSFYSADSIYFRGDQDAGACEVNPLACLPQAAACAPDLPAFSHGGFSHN
Assay details: In vitro inhibition of VAP-1 SSAO activity (coupled colourimetric method)
Assay type: biochemical
Condition context: ratio of total rat MAO IC50 to human VAP-1 SSAO IC50
Where a name gives a salt, the structure may show the parent alone.
Is Selectivity for VAP-1 SSAO over MAO at least 100? Then 1. If not, 0.

Take a look at these entries with their results.
COc1cccc(C(CN(C)N)OC)c1 (stereo not drawn) [Compound 7]
1
CN(N)[C@@H]1CCCC[C@]1(O)c1ccccc1 (racemic) [Compound 43]
0
C[C@@H]([C@H](O)c1ccccc1)N(C)N (racemic) [Compound 12]
1
CCN(N)[C@@H](C)[C@H](O)c1ccccc1 (racemic) [Compound 13]
0
COc1ccc(C(CN(C)N)OC)cc1 (racemic) [Compound 37]
1
CCC[C@@H](NN)[C@@H](O)c1ccccc1 (racemic) [Compound 22]
0

Consider now this further compound.
I'd appreciate it if you could say whether C[C@@H]([C@H](O)c1ccccc1)N(C)N (relative stereo) [Compound 2, hydrochloride] has Selectivity for VAP-1 SSAO over MAO at least equal to 100. 1
